# Target entity: TIR1 (Arabidopsis thaliana, UniProt Q38825+Q570C0)
# Sequence (Q570C0 whole entry, other chains not shown): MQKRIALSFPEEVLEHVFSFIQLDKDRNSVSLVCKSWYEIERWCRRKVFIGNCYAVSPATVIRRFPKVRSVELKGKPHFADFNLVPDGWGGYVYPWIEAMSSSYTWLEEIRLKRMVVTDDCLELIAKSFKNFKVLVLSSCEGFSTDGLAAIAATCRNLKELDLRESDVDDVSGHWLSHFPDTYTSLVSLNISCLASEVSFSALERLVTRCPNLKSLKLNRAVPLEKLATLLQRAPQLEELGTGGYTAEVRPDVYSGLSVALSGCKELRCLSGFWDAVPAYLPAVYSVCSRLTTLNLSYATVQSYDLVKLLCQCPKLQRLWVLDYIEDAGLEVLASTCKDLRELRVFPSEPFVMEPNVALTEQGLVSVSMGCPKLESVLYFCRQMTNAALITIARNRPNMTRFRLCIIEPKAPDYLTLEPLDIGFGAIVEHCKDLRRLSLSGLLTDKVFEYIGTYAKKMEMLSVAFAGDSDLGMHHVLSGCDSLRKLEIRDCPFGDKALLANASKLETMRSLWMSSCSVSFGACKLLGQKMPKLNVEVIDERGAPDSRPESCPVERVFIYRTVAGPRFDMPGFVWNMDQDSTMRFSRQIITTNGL
# Type: binding
Quantity: pEC50
# log scale: pEC50 equals minus log10 of the concentration in mol/L

Query :: Entry O=C(O)Cc1c[nH]c2ccccc12 [IAA, indole-3-acetic acid] has what pEC50?
Result :: 4.94
